Let's look at some log10(Ki) data for UniProt P35368 that I collected from the literature.
measurement-label: log10(Ki) (log10 of the value in nM)

| smiles-string | log10(Ki) |
| --- | --- |
| CC(C)Oc1cccnc1N1CCN([C@H]2CC[C@@H](NS(=O)(=O)c3cc(Cl)ccc3F)CC2)CC1 | 3.27 |
| CC(C)Oc1ccccc1N1CCN([C@H]2CC[C@H](NS(=O)(=O)c3ccccc3S(C)(=O)=O)CC2)CC1 | 2.07 |
| Cc1ccc(S(=O)(=O)N[C@H]2CC[C@H](N3CCN(c4ccccc4OC(C)C)CC3)CC2)cc1Cl | 2.29 |
| CC(C)Oc1ccccc1N1CCN([C@H]2CC[C@@H](NS(=O)(=O)c3ccc(C(F)(F)F)cc3)CC2)CC1 | 2.09 |
| COc1cc2nc(N3CCN(C(=O)OCc4ccccc4)[C@H](C(=O)NC(C)(C)C)C3)nc(N)c2cc1OC | 0.00 |
| COc1ccc(C)cc1S(=O)(=O)N[C@H]1CC[C@H](N2CCN(c3ccccc3OC(C)C)CC2)CC1 | 2.34 |
| CCN([C@H]1CC[C@@H](N2CCN(c3ccccc3OC(C)C)CC2)CC1)S(=O)(=O)c1ccc(OC)c(OC)c1 | 2.51 |

---

Let's look at some Ki data for Alpha-1B adrenergic receptor (Homo sapiens, UniProt P35368) that I collected from the literature.

| compound | Ki |
| --- | --- |
| CC(C)Oc1ccccc1N1CCN([C@H]2CC[C@@H](NS(=O)(=O)c3cccc(F)c3)CC2)CC1 | 108 nM |
| COc1ccc(Cl)cc1S(=O)(=O)N[C@H]1CC[C@@H](N2CCN(c3ncccc3OCC3CC3)CC2)CC1 | 601 nM |
| CC(C)Oc1ccccc1N1CCN([C@H]2CC[C@@H](NS(=O)(=O)c3ccccc3)CC2)CC1 | 111 nM |
| CC(C)Oc1ccccc1N1CCN([C@H]2CC[C@@H](NS(=O)(=O)c3cccnc3)CC2)CC1 | 400 nM |
| O=C(NCCCNC(=O)[C@@H]1[C@H]2C[C@H]3c4[nH]c5ccccc5c4CCN3C[C@@H]2CC[C@@H]1O)[C@@H]1[C@H]2C[C@H]3c4[nH]c5ccccc5c4CCN3C[C@@H]2CC[C@@H]1O | 5750 nM |
| CC(C)Oc1ccccc1N1CCN(C2CCC(N3C(=O)c4c(F)c(F)c(F)c(F)c4C3=O)CC2)CC1 (mixture of isomers) | 4110 nM |
| COc1ccncc1S(=O)(=O)N[C@H]1CC[C@@H](N2CCN(c3ccccc3OC(C)C)CC2)CC1 | 169 nM |

---

pKi: −log10 of the molar value.
Let's look at some pKi data for Alpha-1B adrenergic receptor (Homo sapiens) that I collected from the literature.

| compound | pKi |
| --- | --- |
| CC(C)Oc1ccccc1N1CCN(C2CCC(N3C(=O)c4cc(Cl)c(Cl)cc4C3=O)CC2)CC1 (mixture of isomers) | 5.97 |
| COc1ccc(S(=O)(=O)N[C@H]2CC[C@H](N3CCN(c4cc(F)ccc4OCC(F)(F)F)CC3)CC2)cc1OC | 6.66 |
| CC(C)Oc1ccccc1N1CCN([C@H]2CC[C@@H](NS(=O)(=O)c3ccc(Cl)cc3Cl)CC2)CC1 | 6.75 |
| COc1ccc(NC(=O)N[C@H]2CC[C@H](N3CCN(c4ccccc4OC(C)C)CC3)CC2)cc1Cl | 6.97 |
| CC(C)Oc1ccccc1N1CCN([C@H]2CC[C@H](NC(=O)Nc3c(Cl)cc(Cl)cc3Cl)CC2)CC1 | 6.95 |
| CC(C)Oc1ccccc1N1CCN([C@H]2CC[C@H](NS(=O)(=O)c3cccnc3)CC2)CC1 | 6.72 |
| CC(C)Oc1ccccc1N1CCN([C@H]2CC[C@@H](NS(=O)(=O)c3cnc(Cl)c(Br)c3)CC2)CC1 | 6.90 |
| Cc1c(Cl)cccc1S(=O)(=O)N[C@H]1CC[C@H](N2CCN(c3ccccc3OC(C)C)CC2)CC1 | 6.26 |
| CC(C)Oc1ccccc1N1CCN([C@H]2CC[C@H](NS(=O)(=O)c3ccccc3[N+](=O)[O-])CC2)CC1 | 6.63 |
| CC(C)Oc1ccccc1N1CCN(C2CCC(NC(=O)Nc3ccccc3OC(F)(F)F)CC2)CC1 (mixture of isomers) | 6.22 |
| COc1ccc(S(=O)(=O)N[C@H]2CC[C@H](N3CCN(c4ccc(F)cc4OC(C)C)CC3)CC2)cc1OC | 6.84 |
| Cc1c(Cl)cccc1S(=O)(=O)N[C@H]1CC[C@@H](N2CCN(c3ccccc3OC(C)C)CC2)CC1 | 6.89 |
| COc1ccc(S(=O)(=O)N[C@H]2CC[C@@H](N3CCN(c4ccc(F)cc4OC(C)C)CC3)CC2)cc1OC | 6.15 |
| COc1ccc(S(=O)(=O)N[C@H]2CC[C@@H](N3CCN(c4ncccc4OCC4CC4)CC3)CC2)cc1OC | 6.44 |
| CC(C)Oc1ccccc1N1CCN([C@H]2CC[C@@H](NC(=O)Nc3ccccc3Cl)CC2)CC1 | 6.43 |

---

Let's look at some Ki data for UniProt:P35368 that I collected from the literature.

| molecule | test-target | value-units | Ki |
| --- | --- | --- | --- |
| COc1ccncc1S(=O)(=O)N[C@H]1CC[C@H](N2CCN(c3ccccc3OC(C)C)CC2)CC1 | UniProt:P35368 | µM | 0.268 |
| CC(C)Oc1ccccc1N1CCN([C@H]2CC[C@H](NS(=O)(=O)c3cccc4cccnc34)CC2)CC1 | UniProt:P35368 | µM | 0.0776 |
| CC(C)Oc1ccccc1N1CCN([C@H]2CC[C@H](NC(=O)Nc3cc(F)cc(F)c3)CC2)CC1 | UniProt:P35368 | µM | 0.052 |
| COc1ccc(S(=O)(=O)N[C@H]2CC[C@@H](N3CCN(c4ccc(F)cc4OCC(F)(F)F)CC3)CC2)cc1OC | UniProt:P35368 | µM | 0.176 |
| COc1ccc([N+](=O)[O-])cc1S(=O)(=O)N[C@H]1CC[C@H](N2CCN(c3ccccc3OC(C)C)CC2)CC1 | UniProt:P35368 | µM | 0.173 |
| CC(C)Oc1ccccc1N1CCN([C@H]2CC[C@H](NS(=O)(=O)c3ccc(F)cc3)CC2)CC1 | UniProt:P35368 | µM | 0.301 |
| COc1ccc(S(=O)(=O)N[C@H]2CC[C@@H](N3CCN(c4ncccc4OC(C)C)CC3)CC2)cc1OC | UniProt:P35368 | µM | 0.112 |
| CC(C)Oc1ccccc1N1CCN([C@H]2CC[C@H](NS(=O)(=O)c3ccc(OC(F)(F)F)cc3)CC2)CC1 | UniProt:P35368 | µM | 1.25 |
| COc1ccc(S(=O)(=O)N[C@H]2CC[C@H](N3CCN(c4ccccc4OCC(F)(F)F)CC3)CC2)cc1OC | UniProt:P35368 | µM | 0.0348 |
| COc1cc2nc(N3CCN[C@H](C(=O)NC(C)(C)C)C3)nc(N)c2cc1OC | UniProt:P35368 | µM | 0.0027 |
| CC(C)Oc1ccccc1N1CCN([C@H]2CC[C@H](NS(=O)(=O)c3ccc(F)c(Cl)c3)CC2)CC1 | UniProt:P35368 | µM | 2.3 |
| CC(C)Oc1ccccc1N1CCN([C@H]2CC[C@@H](NC(=O)Nc3cc(F)cc(F)c3)CC2)CC1 | UniProt:P35368 | µM | 1.05 |
| COc1ccc(C)cc1NC(=O)N[C@H]1CC[C@@H](N2CCN(c3ccccc3OC(C)C)CC2)CC1 | UniProt:P35368 | µM | 0.168 |
| CC(C)Oc1ccccc1N1CCN([C@H]2CC[C@@H](NC(=O)Nc3ccc(OC(F)(F)F)cc3)CC2)CC1 | UniProt:P35368 | µM | 0.277 |
| CC(C)Oc1ccccc1N1CCN([C@H]2CC[C@H](N3C(=O)c4cccc(F)c4C3=O)CC2)CC1 | UniProt:P35368 | µM | 0.0179 |
| CC(C)Oc1ccccc1N1CCN([C@H]2CC[C@@H](NC(=O)Nc3cc(F)ccc3F)CC2)CC1 | UniProt:P35368 | µM | 0.259 |
| COc1ccc(S(=O)(=O)N[C@H]2CC[C@@H](N3CCN(c4ccccc4OCC(F)(F)F)CC3)CC2)cc1OC | UniProt:P35368 | µM | 0.1 |
| COc1ccc(Cl)cc1S(=O)(=O)N[C@H]1CC[C@@H](N2CCN(c3ccccc3OC(C)C)CC2)CC1 | UniProt:P35368 | µM | 0.0476 |
| COc1ccc(Cl)cc1S(=O)(=O)N[C@H]1CC[C@H](N2CCN(c3ccc(F)cc3OC(C)C)CC2)CC1 | UniProt:P35368 | µM | 0.044 |
| CC(C)Oc1ccccc1N1CCN([C@H]2CC[C@@H](NC(=O)Nc3ccc(F)cc3F)CC2)CC1 | UniProt:P35368 | µM | 0.475 |
| CC(C)Oc1ccccc1N1CCN([C@H]2CC[C@@H](NC(=O)Nc3c(F)cccc3F)CC2)CC1 | UniProt:P35368 | µM | 0.299 |
| CC(C)Oc1ccccc1N1CCN([C@H]2CC[C@@H](NS(=O)(=O)c3ccc(F)c(Cl)c3)CC2)CC1 | UniProt:P35368 | µM | 0.246 |
| CC(C)Oc1ccccc1N1CCN(C2CCC(N3C(=O)c4cccnc4C3=O)CC2)CC1 (mixture of isomers) | UniProt:P35368 | µM | 0.0446 |
| COc1ccc(F)cc1S(=O)(=O)N[C@H]1CC[C@@H](N2CCN(c3ccccc3OC(C)C)CC2)CC1 | UniProt:P35368 | µM | 0.162 |
| CC(C)Oc1ccccc1N1CCN([C@H]2CC[C@H](NS(=O)(=O)c3ccccc3C(F)(F)F)CC2)CC1 | UniProt:P35368 | µM | 0.844 |
| CC(C)Oc1ccccc1N1CCN([C@H]2CC[C@@H](NC(=O)Nc3ccc(F)c(F)c3)CC2)CC1 | UniProt:P35368 | µM | 0.963 |
| COc1ccc([N+](=O)[O-])cc1S(=O)(=O)N[C@H]1CC[C@@H](N2CCN(c3ccccc3OC(C)C)CC2)CC1 | UniProt:P35368 | µM | 0.0853 |
| CC(C)Oc1ccccc1N1CCN([C@H]2CC[C@H](NS(=O)(=O)c3ccccc3)CC2)CC1 | UniProt:P35368 | µM | 0.487 |
| COc1ccc(S(=O)(=O)N[C@H]2CC[C@@H](N3CCN(c4cc(F)ccc4OCC(F)(F)F)CC3)CC2)cc1OC | UniProt:P35368 | µM | 0.075 |
| COc1ccc(C(F)(F)F)cc1S(=O)(=O)N[C@H]1CC[C@@H](N2CCN(c3ccccc3OC(C)C)CC2)CC1 | UniProt:P35368 | µM | 0.473 |
